Assay: Cytotoxicity against MDCK2 cells assessed as reduction in cell viability after 48 hrs by MTT assay
Type: cell-based
Settings: Canis lupus familiaris, MDCK-II
pIC50: −log10 of the molar value.
recorded metric: pIC50

* O=[N+]([O-])c1cc(CSc2nnnn2Cc2ccccc2)cc([N+](=O)[O-])c1 | < 4.52

Data request: I am curious: what pIC50 value has been reported for "O=[N+]([O-])c1ccc(C[Se]c2nnnn2C2CCCCC2)c([N+](=O)[O-])c1" ?
Data returned: > 5.12

Data request: I am curious: what pIC50 value has been reported for "COc1ccc(-n2nnnc2SCc2cc([N+](=O)[O-])cc([N+](=O)[O-])c2)cc1" ?
Data returned: < 4.52

Data request: What does the record list as pIC50 for O=[N+]([O-])c1cc(C[S+]([O-])c2nnnn2C2CCCCC2)cc([N+](=O)[O-])c1 (centres undefined) ?
Data returned: < 4.52

Data request: Given "O=[N+]([O-])c1cc(CSc2nnnn2-c2ccc(Cl)c(Cl)c2)cc([N+](=O)[O-])c1" , state its recorded pIC50.
Data returned: < 4.52

Data request: Look up pIC50 for this compound: "O=[N+]([O-])c1cc(C[Se]c2nnnn2C2CCCCC2)cc([N+](=O)[O-])c1"
Data returned: 4.72

Data request: Data request, read-out pIC50, for "O=[N+]([O-])c1cc(CSc2nnnn2C2CCCCC2)cc([N+](=O)[O-])c1"
Data returned: < 4.52

Data request: Bench note: what pIC50 did "COc1ccc(-n2nnnc2[Se]Cc2cc([N+](=O)[O-])cc([N+](=O)[O-])c2)cc1" show?
Data returned: > 5.12

Data request: Please report the recorded pIC50 for "O=[N+]([O-])c1cc(CS(=O)(=O)c2nnnn2C2CCCCC2)cc([N+](=O)[O-])c1" .
Data returned: > 5.12

----------
Experiment: Cytotoxicity against MDCK2 cells assessed as cell viability at 30 uM after 48 hrs by MTT assay
Format: cell-based, Canis lupus familiaris, MDCK-II
Conditions: dog, read-out: Activity
viability at 48 h, 30 µM: recorded values
Express it in %; write the number only.

# count of solved cases: 2
• O=[N+]([O-])c1cc(CSc2nnnn2C2CCCCC2)cc([N+](=O)[O-])c1 = 98
• O=[N+]([O-])c1ccc(C[Se]c2nnnn2C2CCCCC2)c([N+](=O)[O-])c1 = 11

Data request: Requested field: viability at 48 h, 30 µM. Item: "O=[N+]([O-])c1cc(CSc2nnnn2Cc2ccccc2)cc([N+](=O)[O-])c1"
Data returned: 87

Data request: Fill blank: measured viability at 48 h, 30 µM of the compound "O=[N+]([O-])c1cc(C[Se]c2nnnn2Cc2ccccc2)cc([N+](=O)[O-])c1" is ____.
Data returned: 41

Data request: Fill blank: measured viability at 48 h, 30 µM of the compound "O=[N+]([O-])c1cc(COc2nnnn2-c2ccc(Cl)c(Cl)c2)cc([N+](=O)[O-])c1" is ____.
Data returned: 22

----------
Tested on: Mycobacterium avium
Experiment: Antimycobacterial activity against Mycobacterium avium CNCTC My 330/88 after 14 days by micromethod
Assay type: functional
Details: CNCTC My 330/88, 336 h
recorded metric: MIC (µM)
Return type: number; implicit unit µM.

Some molecules with known MIC results, for comparison:
• O=[N+]([O-])c1cc(C[Se]c2nnnn2-c2ccccc2)cc([N+](=O)[O-])c1 = 32
• COc1ccc(-n2nnnc2[S+]([O-])Cc2cc([N+](=O)[O-])cc([N+](=O)[O-])c2)cc1 (centres undefined) = 250
• CCN(CC)c1ccc(-n2nnnc2SCc2cc([N+](=O)[O-])cc([N+](=O)[O-])c2)cc1 = 62
• O=[N+]([O-])c1cc(CSc2nnn[nH]2)cc([N+](=O)[O-])c1 = 1000
• O=[N+]([O-])c1cc(COc2nnnn2-c2ccccc2)cc([N+](=O)[O-])c1 = 125
• O=[N+]([O-])c1cc(C[S+]([O-])c2nnnn2C2CCCCC2)cc([N+](=O)[O-])c1 (centres undefined) = 125
• CC(=O)SCc1cc([N+](=O)[O-])cc([N+](=O)[O-])c1 = 62
• O=[N+]([O-])c1ccc(CSc2nnnn2C2CCCCC2)c([N+](=O)[O-])c1 = 16

Data request: What value of measured MIC is listed for "O=[N+]([O-])c1cc(CSc2nnnn2C2CCCCC2)cc([N+](=O)[O-])c1" ?
Data returned: 16

----------
System: HeLa
Assay: Cytotoxicity against human HeLa cells assessed as reduction in cell viability after 48 hrs by MTT assay
Format: cell-based
pIC50: −log10 of the molar value.
Listed compounds paired with reported pIC50

• O=[N+]([O-])c1cc(C[S+]([O-])c2nnnn2C2CCCCC2)cc([N+](=O)[O-])c1 (stereo unspecified) = < 4.52
• O=[N+]([O-])c1ccc(C[Se]c2nnnn2C2CCCCC2)c([N+](=O)[O-])c1 = 4.54
• O=[N+]([O-])c1cc(C[Se]c2nnnn2C2CCCCC2)cc([N+](=O)[O-])c1 = < 4.52
• O=[N+]([O-])c1cc(COc2nnnn2-c2ccc(Cl)c(Cl)c2)cc([N+](=O)[O-])c1 = < 4.52
• O=[N+]([O-])c1ccc(CSc2nnnn2C2CCCCC2)c([N+](=O)[O-])c1 = < 4.52

Data request: What value of measured pIC50 is listed for "O=[N+]([O-])c1cc(CSc2nnnn2C2CCCCC2)cc([N+](=O)[O-])c1" ?
Data returned: < 4.52

Data request: Any idea what its pIC50 is? The compound is "O=[N+]([O-])c1cc(CS(=O)(=O)c2nnnn2C2CCCCC2)cc([N+](=O)[O-])c1"
Data returned: 4.68

Data request: Param item = "O=[N+]([O-])c1cc(CSc2nnnn2Cc2ccccc2)cc([N+](=O)[O-])c1" ; retrieve measured pIC50.
Data returned: < 4.52

Data request: I am curious: what pIC50 value has been reported for "COc1ccc(-n2nnnc2[Se]Cc2cc([N+](=O)[O-])cc([N+](=O)[O-])c2)cc1" ?
Data returned: < 4.52

Data request: Recorded pIC50 of "O=[N+]([O-])c1cc(C[Se]c2nnnn2Cc2ccccc2)cc([N+](=O)[O-])c1" , please.
Data returned: < 4.52

Data request: What does the data say about its pIC50? Entry: "O=[N+]([O-])c1cc(CSc2nnnn2-c2ccc(Cl)c(Cl)c2)cc([N+](=O)[O-])c1"
Data returned: < 4.52

----------
Experiment: Cytotoxicity against human HeLa cells assessed as cell viability at 30 uM after 48 hrs by MTT assay
Assay type: cell-based
Details: read-out: Activity
recorded metric: viability at 48 h, 30 µM (%)
Quick reminder: number only, in %, skip the unit.

Some solved cases for reference:
* O=[N+]([O-])c1cc(C[Se]c2nnnn2Cc2ccccc2)cc([N+](=O)[O-])c1 | 54
* O=[N+]([O-])c1cc(COc2nnnn2-c2ccc(Cl)c(Cl)c2)cc([N+](=O)[O-])c1 | 69
* COc1ccc(-n2nnnc2SCc2cc([N+](=O)[O-])cc([N+](=O)[O-])c2)cc1 | 39
* O=[N+]([O-])c1cc(CS(=O)(=O)c2nnnn2C2CCCCC2)cc([N+](=O)[O-])c1 | 22

Data request: Request the reported viability at 48 h, 30 µM associated with "O=[N+]([O-])c1cc(C[Se]c2nnnn2C2CCCCC2)cc([N+](=O)[O-])c1"
Data returned: 66

Data request: Requested read-out: viability at 48 h, 30 µM. Entry: "O=[N+]([O-])c1cc(CSc2nnnn2Cc2ccccc2)cc([N+](=O)[O-])c1"
Data returned: 91

----------
Test system: Mycobacterium avium
Test: Antimycobacterial activity against Mycobacterium avium CNCTC My 330/88 after 14 days by micromethod
Type: functional
Conditions: CNCTC My 330/88, 336 h
recorded metric: MIC (µM)
Enter your answer as a number in µM; do not include the unit.

Data request: MIC of "O=[N+]([O-])c1cc(CSc2nnnn2-c2ccc(Br)cc2)cc([N+](=O)[O-])c1" on Mycobacterium avium?
Data returned: 125

Data request: Query MIC on Mycobacterium avium for "N#CSCc1cc([N+](=O)[O-])cc([N+](=O)[O-])c1"
Data returned: 32

Data request: What is its MIC for Mycobacterium avium? Entry: "COc1cc(-n2nnnc2SCc2cc([N+](=O)[O-])cc([N+](=O)[O-])c2)cc(OC)c1OC"
Data returned: 250

----------
Test: Cytotoxicity against human HepG2 cells assessed as cell viability at 30 uM after 48 hrs by MTT assay
Format: cell-based
Details: read-out: Activity
recorded metric: viability at 48 h, 30 µM (%)
Enter your answer as a number in %; do not include the unit.

- O=[N+]([O-])c1cc(COc2nnnn2-c2ccc(Cl)c(Cl)c2)cc([N+](=O)[O-])c1: 27
- O=[N+]([O-])c1cc(CS(=O)(=O)c2nnnn2C2CCCCC2)cc([N+](=O)[O-])c1: 10
- O=[N+]([O-])c1cc(C[S+]([O-])c2nnnn2C2CCCCC2)cc([N+](=O)[O-])c1 (configuration not stated): 42
- O=[N+]([O-])c1cc(CSc2nnnn2-c2ccc(Cl)c(Cl)c2)cc([N+](=O)[O-])c1: 42
- O=[N+]([O-])c1cc(CSc2nnnn2C2CCCCC2)cc([N+](=O)[O-])c1: 88

Data request: Any idea what its viability at 48 h, 30 µM is? The molecule is "COc1ccc(-n2nnnc2[Se]Cc2cc([N+](=O)[O-])cc([N+](=O)[O-])c2)cc1"
Data returned: 17

Data request: Which viability at 48 h, 30 µM reading was recorded for the molecule "COc1ccc(-n2nnnc2SCc2cc([N+](=O)[O-])cc([N+](=O)[O-])c2)cc1" ?
Data returned: 90

Data request: viability at 48 h, 30 µM lookup needed for "O=[N+]([O-])c1ccc(CSc2nnnn2C2CCCCC2)c([N+](=O)[O-])c1" , thanks.
Data returned: 47

Data request: What does the record list as viability at 48 h, 30 µM for "O=[N+]([O-])c1cc(C[Se]c2nnnn2C2CCCCC2)cc([N+](=O)[O-])c1" ?
Data returned: 87

Data request: Data request, read-out viability at 48 h, 30 µM, for "O=[N+]([O-])c1cc(CSc2nnnn2Cc2ccccc2)cc([N+](=O)[O-])c1"
Data returned: 94

Data request: Using the record for "O=[N+]([O-])c1cc(C[Se]c2nnnn2Cc2ccccc2)cc([N+](=O)[O-])c1" , report its viability at 48 h, 30 µM.
Data returned: 33

Data request: What value of viability at 48 h, 30 µM has been recorded for this entry: "O=[N+]([O-])c1ccc(C[Se]c2nnnn2C2CCCCC2)c([N+](=O)[O-])c1"
Data returned: 4
